Assay: self-splicing fitness, log relative to wild type (ln ratio); higher = more splicing; Tetrahymena group I intron in knt gene, E. coli kanamycin selection, DiMSum; sequences stand for … in CUCUCU…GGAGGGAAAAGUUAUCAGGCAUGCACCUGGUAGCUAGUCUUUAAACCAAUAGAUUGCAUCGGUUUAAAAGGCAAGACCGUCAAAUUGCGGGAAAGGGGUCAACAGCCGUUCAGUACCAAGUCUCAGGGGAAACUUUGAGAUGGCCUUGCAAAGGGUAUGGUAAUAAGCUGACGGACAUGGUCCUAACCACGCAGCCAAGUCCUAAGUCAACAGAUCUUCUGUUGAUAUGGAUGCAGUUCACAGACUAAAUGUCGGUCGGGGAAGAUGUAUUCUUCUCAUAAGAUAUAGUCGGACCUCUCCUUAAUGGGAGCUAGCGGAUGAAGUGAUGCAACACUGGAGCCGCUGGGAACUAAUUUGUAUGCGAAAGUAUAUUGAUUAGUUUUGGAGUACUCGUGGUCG;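 further: selection with 25 µg/mL kanamycin versus none on LB agar overnight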
Conditions: 37 °C
measurement.name: self-splicing fitness (ln)
I only need the number, thanks.

Previously resolved entries follow.
- UGCAAGCAAUAUUACGCUGC: -2.4
- UAUAAGCAAUAUUACGUCGG: -0.0864
- GUGUAGCAAUAUUACGAUUG: -2.18
- GAAUAGCAAUAUUACGGACC: 0.0435
- UGGUAGCAAUAUUACGUUGA: -0.66
- UCUAAGCAAUAUUACGUUCA: -1.56
- GGAAAGCAAUAUUACGUCCC: -2.61
- UUUCAGCAAUAUUACGCAAC: -1.8

self-splicing fitness (ln) reading for `ACGAAGCAAUAUUACGGAGU` : -3.07

// field: self-splicing fitness (ln); key: `GCGUAGCAAUAUUACGUUUA` ; value = -2.13

For this sequence ( `CACGAGCAAUAUUACGCAAG` ), measured self-splicing fitness (ln) is -0.867

The sequence identified as `UUAUAGCAAUAUUACGAUUG` registered its self-splicing fitness (ln) at -0.505

Item: `CGGUAGCAAUAUUACGUCCC` | self-splicing fitness (ln): 0.985

---

Experiment: self-splicing fitness, log relative to wild type (ln ratio); higher = more splicing; Tetrahymena group I intron in knt gene, E. coli kanamycin selection, DiMSum; sequences stand for … in CUCUCU…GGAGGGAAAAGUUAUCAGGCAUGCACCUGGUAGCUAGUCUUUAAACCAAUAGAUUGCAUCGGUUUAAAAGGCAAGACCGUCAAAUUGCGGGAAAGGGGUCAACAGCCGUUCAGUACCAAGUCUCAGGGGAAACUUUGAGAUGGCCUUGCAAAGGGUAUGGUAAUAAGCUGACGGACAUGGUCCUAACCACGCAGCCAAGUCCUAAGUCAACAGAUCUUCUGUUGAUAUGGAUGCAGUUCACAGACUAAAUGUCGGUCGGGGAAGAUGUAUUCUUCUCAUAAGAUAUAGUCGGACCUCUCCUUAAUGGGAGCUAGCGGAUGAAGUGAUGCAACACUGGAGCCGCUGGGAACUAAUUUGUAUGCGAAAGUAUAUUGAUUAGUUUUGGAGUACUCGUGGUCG
Details: 30 °C
measurement.name: self-splicing fitness (ln)
Write no unit; give the number alone.

Some sequences with known self-splicing fitness (ln) results, for comparison:
• UACGAGCAAUAUUACGAAUG = -2.56
• GGGCAGCAAUAUUACGGUUA = -0.537
• CACUAGCAAUAUUACGAGAU = -3.87

Input `GCGAAGCAAUAUUACGUGUG` . Output self-splicing fitness (ln): -2.61

Looking up `GGUAAGCAAUAUUACGGUCA` , I found its self-splicing fitness (ln) recorded as -0.727
